Where do these numbers come from? They come from PubChem BioAssay (NCI).

testName: NCI Yeast Anticancer Drug Screen. Data for the mlh1 rad18 strain (AID 175)
conditionDescription: S. cerevisiae mlh1 rad18 strain growth inhibition; at 50.0 µM (retest, dose inferred, filed as 5.0)
Compounds without any hit were thinned out: in the full panel of roughly 79,000, 15% have a hit. Activity calls are given as the source filed them. Cut-off read from the data, not from the text of the source: active = growth inhibition above about 70%; inactive = the rest.
Select the matching outcome among 1 = active, 0 = inactive

INPUT: What classification did NC1=NOC(=O)C1Cc1ccccc1 (stereo not given) end up with in this test?
OUTPUT: 0

INPUT: What classification did Cc1ccc(C(=O)C(CN(C)C)CN(C)C)cc1C end up with in this test?
OUTPUT: 1

INPUT: What classification did Cc1cc2nc3[nH]c4c(Cl)cc(Cl)cc4c3nc2cc1C end up with in this test?
OUTPUT: 0

INPUT: What classification did CC1([N+](=O)[O-])C(=O)C2(N3CCCCC3)CCCC2C1c1ccccc1 (stereo not given) end up with in this test?
OUTPUT: 0

INPUT: What classification did CCOC(=O)C1(C#N)C(c2ccccc2)CC(O)(c2ccc([N+](=O)[O-])cc2)C(C(=O)c2ccc([N+](=O)[O-])cc2)C1c1ccccc1 (stereo not given) end up with in this test?
OUTPUT: 0

INPUT: What classification did Clc1ncccc1-n1cccc1/C=N\N=C/c1cccn1-c1cccnc1Cl end up with in this test?
OUTPUT: 1

INPUT: What classification did O=C(OC1C=C=CS(=O)(=O)CC#C/C=C\1)c1cnc2ccccc2n1 (stereo not given) end up with in this test?
OUTPUT: 1

INPUT: What classification did CCOC(=O)C(C#N)c1cc(O)c(C(C#N)C(=O)OCC)cc1O (stereo not given) end up with in this test?
OUTPUT: 0

INPUT: What classification did C/C(=N\NC(=S)N(C)C)c1cccnn1 end up with in this test?
OUTPUT: 1

INPUT: What classification did COC(=O)CCC(=O)N1C/C(=C\c2ccccc2)C(=O)/C(=C/c2ccccc2)C1 end up with in this test?
OUTPUT: 0

INPUT: What classification did CC(C)O[C@H]1N(C2CC(N=[N+]=[N-])C(CO)O2)C(=O)NC(=O)[C@]1(C)Br (stereo not given in full) end up with in this test?
OUTPUT: 0

INPUT: What classification did CN(C)[C@@H]1C(=O)C(C(=O)NCNc2nc3n[nH]nc3c(=O)[nH]2)=C(O)[C@@]2(O)C(=O)C3=C(O)c4c(O)cccc4[C@@](C)(O)[C@H]3C[C@@H]12 end up with in this test?
OUTPUT: 0

---

testName: NCI Yeast Anticancer Drug Screen. Data for the mlh1 rad18 strain (AID 175)
conditionDescription: S. cerevisiae mlh1 rad18 strain growth inhibition; at 50.0 µM; hits give high values
This is part of a sample that, as a whole, favours compounds with a hit. Of some 79,000 tested, about 15% had one in any assay.
Class (by growth inhibition) -- lower: < 40%; middle: ≥ 40% and < 90%; upper: ≥ 90%

Sample answers from the record:
compound	labelValue
O=P(Nc1ccccc1)(OCc1ccccc1)OCc1ccccc1	upper
COc1cc(/C=C2\Sc3scc(-c4cccc([N+](=O)[O-])c4)[n+]3C2=O)cc(OC)c1OC	upper
Cc1cccc(C[N+](C)(C)CCCO)c1C	lower

INPUT: Please classify: O=C(OCC1CCCO1)N(c1ccccc1)c1ccccc1 (stereo unspecified)
OUTPUT: lower

INPUT: Please classify: O=C1OC(=O)c2cccc3cccc1c23
OUTPUT: upper

INPUT: Please classify: O=C1C=CC(=O)c2c(O)c(N3CCC[C@@H]3CO)c(Cl)c(O)c21
OUTPUT: lower

INPUT: Please classify: COc1cc(C2C(C(=O)O)=C(C)Oc3cc4c(cc32)OCO4)cc(OC)c1OC (stereo unspecified)
OUTPUT: upper

INPUT: Please classify: C(CCCCCN1CCCCC1)CCCCN1CCCCC1
OUTPUT: lower

INPUT: Please classify: O=[N+]([O-])c1c[nH]c2ncnc(SCc3ccccc3)c12
OUTPUT: upper

INPUT: Please classify: Cc1ccc(C)c(C(=O)CCN)c1
OUTPUT: lower

INPUT: Please classify: Oc1ccc(-c2nnc(-c3ccccc3)nn2)cc1
OUTPUT: lower

INPUT: Please classify: O=C(O)/C=C/C(=O)Nc1cc2c(cc1Br)-c1ccccc1C2Br (stereo unspecified)
OUTPUT: lower
